Target: HIV Env of isolate 249MB10 (clade C) (HIV)
Assay: cell-based or functional assay
observation_type: IC50 (µg/ml) with constrains
Remember to quote the unit after the number.

Example results:
binder: ePGDM13 (antibody, V domains shown) VH: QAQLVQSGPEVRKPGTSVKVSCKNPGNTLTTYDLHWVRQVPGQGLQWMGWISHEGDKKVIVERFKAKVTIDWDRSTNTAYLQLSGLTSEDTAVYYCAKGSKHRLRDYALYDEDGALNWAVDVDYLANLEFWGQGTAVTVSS VL: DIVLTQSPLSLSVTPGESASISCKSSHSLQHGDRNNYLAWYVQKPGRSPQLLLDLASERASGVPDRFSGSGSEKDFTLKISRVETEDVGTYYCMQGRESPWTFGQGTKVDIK
observation_type: IC50 (µg/ml) with constrains
reported: 0.032 µg/mL
--
binder: PGDM1400 (antibody, V domains shown) VH: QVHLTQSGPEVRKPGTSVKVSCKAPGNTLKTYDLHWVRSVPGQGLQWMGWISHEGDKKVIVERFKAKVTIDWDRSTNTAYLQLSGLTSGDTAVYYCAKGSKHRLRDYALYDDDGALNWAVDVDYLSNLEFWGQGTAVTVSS VL: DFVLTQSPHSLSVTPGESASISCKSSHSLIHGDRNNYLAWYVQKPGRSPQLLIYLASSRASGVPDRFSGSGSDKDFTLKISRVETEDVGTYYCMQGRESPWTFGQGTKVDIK
observation_type: IC50 (µg/ml) with constrains
reported: 0.021 µg/mL

Alright, here's another binder for you.
Look at this binder and give its reported IC50 (µg/ml) with constrains. ePGDM5 (antibody, V domains shown) VH: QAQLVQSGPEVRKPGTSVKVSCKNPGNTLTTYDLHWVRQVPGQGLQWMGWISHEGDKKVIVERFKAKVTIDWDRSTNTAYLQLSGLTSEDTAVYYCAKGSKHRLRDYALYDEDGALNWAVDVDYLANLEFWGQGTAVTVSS VL: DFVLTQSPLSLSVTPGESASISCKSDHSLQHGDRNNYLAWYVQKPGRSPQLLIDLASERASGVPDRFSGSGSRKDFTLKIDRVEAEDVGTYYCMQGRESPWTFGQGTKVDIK
0.011 µg/mL
